# TARGET DESC: T1, recombinant human midkine (huMK) (human, UniProt P21741 21-143)
# T1 sequence (looked up): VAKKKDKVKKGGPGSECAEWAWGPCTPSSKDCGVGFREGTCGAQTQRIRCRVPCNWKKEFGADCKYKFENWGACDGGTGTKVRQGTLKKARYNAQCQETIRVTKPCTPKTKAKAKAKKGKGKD
# RUN DESCRIPTION: cell-based or functional assay
ENDPOINT LABEL: Mean Cells/Field, Assay 4 (UMR106 migration, antibody 100 ug/mL, MK-17 20 µg/mL) (cells/field)
Quick reminder: number only, in cells/field, skip the unit.

Entry under review: murine IP14 precursor antibody (antibody, V domains shown, Murine monoclonal antibody; also called mIP14; mAb IP14) VH: QVQLQQPGAELVRPGHSVKLSCKASGQSFSSYWMNWVRQRPGQGLEWIGMIHPSDSETILNQKFKDKATLTVDISSNTAYMQLSSPTSEDSAVYFCSSWSAKRGDFWGQGTTLTVSS VL: DIVLTQSPATLSVTPGDSVNLSCRASESISNNLHWYQQKSHESPRLLIKYASQSISGIPSRFSGSGSGTDFNLSVNSVETEDFGMYFCQQSNSWPLTFGAGTKLELKR . Reported Mean Cells/Field, Assay 4 (UMR106 migration, antibody 100 ug/mL, MK-17 20 µg/mL)?
45
